B1: LINE1-full (parent)
chain: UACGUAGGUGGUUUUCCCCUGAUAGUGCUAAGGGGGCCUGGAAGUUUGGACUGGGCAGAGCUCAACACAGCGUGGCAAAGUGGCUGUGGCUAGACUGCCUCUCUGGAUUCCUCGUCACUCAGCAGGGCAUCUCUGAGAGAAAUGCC

Variants of: B1
run-description: self-cleavage, relative activity (ratio to wild type); higher = more cleavage; in vitro, sequencing; the parent is a self-cleaving ribozyme
measurement-label: self-cleavage
// no unit, no text: just the number

Q: Entry A50G A141G : reported self-cleavage = ?
A: 1

Q: Entry U109C A121C : reported self-cleavage = ?
A: 0.99

Q: Entry A57G U109C : reported self-cleavage = ?
A: 0.49

# credit: the RNAGym collection of RNA variant scans (doi:10.7554/elife.90254)
